Cited source: the nanobody polyreactivity screen of Harvey et al. (2022)

measurement_description: yeast display, Sf9 membrane polyspecificity reagent, FACS + sequencing; frameworks hold sequencing errors
endpoint_name: polyreactivity (PSR sort gate)

Use these answered entries as a reference point.
QVQLVESGGGLVQAGGSLRLSCAASGGTFVQYVMGWYRPAPGKERELVAAISASGGRTYYADSVKGRFTISRDNAKNSVYLQMNSLKPEDTAVDYCAAERKGSVTYEYDYWGQGTQVSVSS ... high polyreactivity
QVQLVESGGGLVQAGGSLRLSCAASGFIFVRYAMGWYRQAPGKEREFVASITRSDGSTYADSVKGRFTISRDNAKNTVYIQMNSLKPEDTAVYYCNKDNHDVELPVEFEYWGQGTQVTVSS ... high polyreactivity
QVQLVESGGGLVQAGGSLRLSCAASGRTFGYNAMGWYRQAPGKEREFVAAISGSGGRTYYADSVKGRFTISRDNAKNTVYLQMNSQKPEDTAVYYCAAGFGDGPGNGYYTRYSWDDDYWGQGTQVTVSS ... low polyreactivity
QVQLVESGGGLVQAGGSLRISCASSGSTFGYYAIGWYRQAPGKESELVAAIRRSGGRTYYADSVKGRFTISRDNAKNTVYLQLNSLKPEDTAVYYCAKDGYSRRNSQKTPYDYWGQGTQVTVSS ... low polyreactivity

Endpoint output: polyreactivity (PSR sort gate) of QVQLVESWGGLVQAGGSLRLSCAASGSTFRPYAMGWYRQAPGKERELVAAFRSGRTSYADSVKGRFTISRDNAKNTVYLQMNSLKPEDTAVYYCAKASRGGYYWGQGTQVTVSS . Value?
high polyreactivity

Endpoint output: polyreactivity (PSR sort gate) of QVQLVESGGGLVQAGGSLRLSCAASGFTFSGYAMGWYRQAPGKERELVAVIRGRGGRTYYADSVKGRFTISRDNAKNTVYLQMNSLKPEDTAVYYCAARRDAYYYVPNRFDYWGQGTQVTVSS . Value?
high polyreactivity

Endpoint output: polyreactivity (PSR sort gate) of HVQLVESGGVLVQAGGSLRLSCAASGRIFRQNTMGWYRQAPGKEREIDATISWRGTRTNYADSVKGRFTISRDNAKNTVYLQMNSLKPEDTAVYYCNAQSWAYTLRTSLYDYWGQGTQVTVSS . Value?
high polyreactivity

Endpoint output: polyreactivity (PSR sort gate) of QVQLVESGGRLVQAGGILRLSCAASGRIFAYYAMGWYRHSPGKERELVAAINWSGDGTNYADSVKGRFTISRDNEKNSVYLQMNSLKPEDTAVYYWNADWTSYGFGTRLDYWGQGTQVTVSS . Value?
low polyreactivity

Endpoint output: polyreactivity (PSR sort gate) of QVQLVESGGGLVQAGGSLRLSCAASGSIFGGYAMGWYRPAPGKERELVASITKSGDSTYADSVKGRFTISRDNAKNTVYLQMNSLKPEDTAVYDCAADSTFGKFEYWGQGTQVTVSS . Value?
low polyreactivity

Endpoint output: polyreactivity (PSR sort gate) of QVQLVESGGRLVQAGGSLRLSCAASGFIFEWNAKGWYRQAPGKERELVASITFGGGNTYYADSVKGRFTISRDYAQNTDYLQMNSLKPEDTAVYYCAVDYGYWRDSIALGEFDYWGQGTQVTVSS . Value?
low polyreactivity

Endpoint output: polyreactivity (PSR sort gate) of QVQLVESGGGLVQAGGSLRLSCAAYGSTFGWYTMGWYRQAPGKERELVATISYGGGITNYADSVKGRFTISRDNAKITVYLQMNSLKPEDTADYDCAVDNTGRSWPYDYWGQGTQVTVSS . Value?
low polyreactivity
